Every entry's value here was drawn from PubChem BioAssay AID651706.

assay: differentiation of ER-HoxA9 arrested myeloid cells – cell-based, GFP/Mac1 flow cytometry, cherry pick 01, confirmation (AID 651706); conditions: ER-HoxA9 myeloid progenitors; GFP/Mac1 double-positive flow
About 55 (2%) of roughly 2,300 compounds were called active.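 Rule for the calls: active = share of green or green-and-red cells above 9 and 9% in run 1 or 4 and 3% in run 2; inactive = the rest, inconclusive results apart.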 Only a sample is shown.
Outcomes: yes = active, no = inactive

INSERT INTO assay_data (molecule, qualitative_label) VALUES
  ('CN(C(=O)c1cccc([N+](=O)[O-])c1)c1ccccc1C(=O)NCc1ccccc1', 'no'),
  ('CCOC(=O)C(C(=O)OCC)C(C#N)c1ccccc1 (stereo unspecified)', 'no'),
  ('CNC[C@H]1Oc2c(NC(=O)C3CCCCC3)cccc2C(=O)N([C@H](C)CO)C[C@@H]1C', 'no'),
  ('CNc1nc(=O)n(C2CCCO2)cc1C (stereo unspecified)', 'no'),
  ('Cc1cc(C)c(S(=O)(=O)NCC2CCC(C(=O)NCc3ccc4c(c3)OCO4)CC2)c(C)c1 (stereo unspecified)', 'no'),
  ('O=C(Nc1cccc2ncccc12)c1ccc(-c2ccc(Cl)cc2Cl)o1', 'no'),
  ('Cc1c(C(=O)OCC(=O)N(CCC#N)c2ccccc2)oc2c1ccc1ccccc12', 'no'),
  ('Nc1nc(Nc2ccccc2F)nc(NC2CCCCC2)c1[N+](=O)[O-]', 'no'),
  ('O[C@H]1C[C@H](c2ccc(Cl)cc2)N(Cc2cccs2)C[C@@H]1n1cc(C2CC2)nn1', 'yes'),
  ('O[C@H]1CN(Cc2cccs2)[C@@H](c2ccc(Cl)cc2)C[C@@H]1n1cc(C2CC2)nn1', 'no'),
  ('CN(C(=O)CSc1nnc(C2CC2)n1C)C1CCCc2ccccc21 (stereo unspecified)', 'no'),
  ('CCOC(=O)C1=C(CN2CCc3ccccc32)NC(=O)NC1c1cccc([N+](=O)[O-])c1 (stereo unspecified)', 'yes'),
  ('COc1cc(/C=C2/SC(=S)N(Cc3ccccc3)C2=O)cc(OC)c1O', 'no'),
  ('O=C(Nc1cccc(-c2nc3ncccc3o2)c1)c1ccco1', 'no'),
  ('CC(=O)N1c2ccc(S(=O)(=O)N3CCCC(C(=O)Nc4cccc(F)c4)C3)cc2CC1C (stereo unspecified)', 'no'),
  ('CCc1noc(C)c1C(=O)Nc1nc(-c2ccccc2)cs1', 'no'),
  ('O=S(=O)(c1ccc(Br)cc1)c1nc(-c2ccccc2)oc1NCc1cccnc1', 'no'),
  ('CCOC(=O)CC(=O)CSc1nc(-c2ccccc2)cc(-c2ccc(Cl)cc2)c1C#N', 'no'),
  ('O=C(NCCN=C1NS(=O)(=O)c2ccccc21)c1ccc(S(=O)(=O)N2CCOCC2)cc1', 'no'),
  ('COc1ccccc1N1CCN(C(=O)c2cc(-c3ccc(Br)cc3)on2)CC1', 'no'),
  ('Cc1cccc(OCC(O)CN2CCN(CCN3C(=O)c4cccc5cccc(c45)C3=O)CC2)c1C (stereo unspecified)', 'no');
